System: NOMO1
Assay: cell viability relative to DMSO control; higher = less cytotoxic
Conditions: RPMI 5 mM glucose + 10% dialyzed FBS; 48 h; 46.1 µM
In this section we review reported cell viability values for a set of compounds.
Respond with the bare value in %.

Examples from the recorded data:
CO[C@@H]1[C@H](N(C)C(=O)c2ccccc2)C[C@H]2O[C@]1(C)n1c3ccccc3c3c4c(c5c6ccccc6n2c5c31)C(=O)NC4 : 49.5
CCCn1c(=O)c2[nH]c(-c3cnn(Cc4cccc(C(F)(F)F)c4)c3)nc2n(CC)c1=O : 44.7
NC\1=N\C(=O)N(\C=N1)[C@H]2C[C@H](O)[C@@H](CO)O2 : 36.1
C[C@@H]1CN(CC(=O)N2CC(C)(C)c3ncc(Cc4ccc(F)cc4)cc32)[C@@H](CN2CCOC[C@H]2C)CN1 : 69.3
N/C(=N\C(=O)c1nc(Cl)c(N)nc1N)NCc1ccccc1 : 49.1
CC(=O)SCC(Cc1ccccc1)C(=O)NCC(=O)OCc1ccccc1 (centres undefined) : 13.2
CCc1cc(/C(C)=N/OCc2ccc(C3CCCCC3)c(C(F)(F)F)c2)ccc1CN1CC(C(=O)O)C1 : 29
CN(C)c1ccc(C(=O)NCCCCCCC(=O)NO)cc1 : 3.05

Consider the additional compound presented here.
Please give the measured cell viability for this compound: CCC(CC)[C@H](NC(C)=O)[C@@H]1[C@H](O)[C@@H](C(=O)O)C[C@H]1NC(=N)N
83.1

----------
In this section we review reported cell viability values for a set of compounds.
System: NOMO1
Assay: cell viability relative to DMSO control; higher = less cytotoxic
Settings: RPMI 5 mM glucose + 10% FBS; 48 h; 0.00234 µM
Respond with the bare value in %.

Examples from the recorded data:
COc1ccc([C@@H]2CNC(=O)C2)cc1OC1CCCC1 : 111
CCc1cc(/C(C)=N/OCc2ccc(C3CCCCC3)c(C(F)(F)F)c2)ccc1CN1CC(C(=O)O)C1 : 113

Consider the additional compound presented here.
Please give the measured cell viability for this compound: CN1[C@@H]2CC(O)C[C@H]1[C@@H]1O[C@@H]12 (stereo partly drawn)
125

----------
Tested on: NOMO1
Assay: AUC of viability dose-response curve (% viability x log10 dose units); higher = less sensitive
Details: RPMI 5 mM glucose + 10% dialyzed FBS; 48 h
measurementType: AUC of viability dose-response curve
Just the number, please, no unit attached.

Examples from the recorded data:
CCc1cc(/C(C)=N/OCc2ccc(C3CCCCC3)c(C(F)(F)F)c2)ccc1CN1CC(C(=O)O)C1 : 420
CCC(c1ccc(O)cc1)C(CC)c1ccc(O)cc1 (stereo not given) : 463
O=C1[O][Pt]2([NH]C3CCCCC3[NH]2)[O]C1=O (stereo not given) : 419

Please give the measured AUC of viability dose-response curve for this molecule: COc1ccc(-c2c(-c3ccc(O)cc3O)n[nH]c2C)cc1
466

Please give the measured AUC of viability dose-response curve for this molecule: N/C(=N\C(=O)c1nc(Cl)c(N)nc1N)NCc1ccccc1
447

----------
System: NOMO1
Assay: cell viability relative to DMSO control; higher = less cytotoxic
Details: RPMI 5 mM glucose + 10% dialyzed FBS; 48 h; 0.569 µM
measurementType: cell viability (%)
Respond with the bare value in %.

COc1ccc(CCC(=O)Nc2nc3ccc(Cl)cc3s2)cc1OC : 106
CNC(=O)c1cc(Oc2ccc(NC(=O)Nc3cc(C(C)(C)C)nn3-c3ccc4ncccc4c3)c(F)c2)ccn1 : 160
CO[C@@H]1[C@H](N(C)C(=O)c2ccccc2)C[C@H]2O[C@]1(C)n1c3ccccc3c3c4c(c5c6ccccc6n2c5c31)C(=O)NC4 : 114
COc1ccc([C@@H]2CNC(=O)C2)cc1OC1CCCC1 : 105
COc1cc(/C=C/C(=O)CC(=O)/C=C/c2ccc(O)c(OC)c2)ccc1O : 104
COc1cc2ncnc(Nc3ccc(F)c(Cl)c3)c2cc1OCCCN1CCOCC1 : 114
O=P(O)(O)C(O)(Cc1cccnc1)P(=O)(O)[O][Na] (stereo unspecified) : 103
CC(C)[C@@H](N(CCCN)C(=O)C1=CC=C(C)C=C1)C/2=C(\CC3=CC=CC=C3)C(=O)C4=C(O2)C=C(Cl)C=C4 : 27.2
CCOc1ccccc1OCCNC(C)Cc1ccc(OC)c([S+](N)(=O)[O-])c1 (stereo unspecified) : 109
CN1C(=O)COc2c(C(=O)NC3CN4CCC3CC4)cc(Cl)cc21 (stereo unspecified) : 97.6

Query the reported cell viability for NOMO1; item: Nc1ccc([S+](=O)([O-])Nc2ccccn2)cc1
122

Query the reported cell viability for NOMO1; item: C[C@@]12OC(=O)[C@@]1(NC(=O)[C@@H]2CCCl)[C@@H](O)[C@H]\3CCC\C=C3
11

Query the reported cell viability for NOMO1; item: CC1=C2N=C([NH]C2=CC(=C1)N3CCOCC3)\C4=C(NC[C@@H](O)C5=CC=CC(=C5)Cl)\C=C/NC4=O
72.8

Query the reported cell viability for NOMO1; item: COc1ccc2cccc(CCNC(C)=O)c2c1
97.2

Query the reported cell viability for NOMO1; item: c1ccc2c(-c3cnn4cc(-c5ccc(N6CCNCC6)cc5)cnc34)ccnc2c1
141

Query the reported cell viability for NOMO1; item: N#Cc1c(C2CCNCC2)cc(-c2c(O)cccc2OCC2CC2)nc1N
117

Query the reported cell viability for NOMO1; item: CN[C@@H](C)C(=O)N[C@H]1CCCC[C@H]2CC[C@@H](C(=O)N[C@@H](c3ccccc3)c3cn(CCCCc4ccc(CCCCn5cc([C@@H](NC(=O)[C@@H]6CC[C@@H]7CCCC[C@H](NC(=O)[C@H](C)NC)C(=O)N76)c6ccccc6)nn5)cc4)nn3)N2C1=O
53.6

Query the reported cell viability for NOMO1; item: CCC1=C(C)CN(C(=O)NCCc2ccc(S(=O)(=O)NC(=O)N[C@H]3CC[C@H](C)CC3)cc2)C1=O
96.3

Query the reported cell viability for NOMO1; item: CC(=O)SCC(Cc1ccccc1)C(=O)NCC(=O)OCc1ccccc1 (stereo unspecified)
95.6

Query the reported cell viability for NOMO1; item: CC1(C)O[C@H]2CC(=O)OC[C@]23[C@H]2CC[C@@]4(C)[C@H](c5ccoc5)OC(=O)[C@H]5O[C@]54[C@]2(C)C(=O)C[C@@H]13
96.7

Query the reported cell viability for NOMO1; item: CCOP(=O)(OCC)C(C)NC(=O)N(CCCl)N=O (stereo unspecified)
134

Query the reported cell viability for NOMO1; item: OC1=C(C=CC=C1)C2=CC=C(C=C2)C3=CSC4=C3C(=C(/C#N)C(=O)N4)/O
122

Query the reported cell viability for NOMO1; item: C[C@H]1CCC/C=C/C2C[C@H](O)C[C@H]2[C@H](O)/C=C/C(=O)O1 (stereo partly specified)
4.29

Query the reported cell viability for NOMO1; item: CCCCc1oc2ccc(NS(C)(=O)=O)cc2c1C(=O)c1ccc(OCCCN(CCCC)CCCC)cc1
103

Query the reported cell viability for NOMO1; item: CN(C)c1nc(N(C)C)nc(N(C)C)n1
101

Query the reported cell viability for NOMO1; item: CN(C)[C@H]\1[C@@H]2[C@@H](O)[C@@H]\3C(=C)C4=C(C(=CC=C4)O)C(=O)C3=C(\O)[C@@]2(O)C(=O)\C(=C1O)C(N)=O
121
